Recorded values, source PubChem BioAssay.

Hi there, I'd appreciate the recorded composite z-score for every entry that follows.
Test Method Notes: small-molecule binders of probe aNOTCH3, primary screen, biochemical, small-molecule microarray, 635/667 nm fluorescence (AID 1120);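 further: probe is a biotin-tagged antibody raised against NOTCH3 rather than NOTCH3 protein; score merges spot fluorescence near 667 nm with spot signal to noise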
Setup Conditions: higher = more signal
Lab note: jot down the number only; don't add units.

## Task Field request: composite z-score | item: CCN1C(=O)[C@H]2[C@H]3[C@H](O)[C@H](O)CC(=NNC(=O)OCc4ccccc4)[C@@H]3CC[C@H]2C1=O
## Result -0.0647

## Task Data request, read-out composite z-score, for COc1ccc(O[C@H]2C=C[C@@H](c3ccccc3)O[C@@H]2COC(=O)NCc2cccc3ccccc23)cc1
## Result -0.191

## Task Name the reported composite z-score value associated with the compound CC(C)=NO[C@@H](C)c1cn([C@H](CO)Cc2ccccc2)nn1
## Result 0.145

## Task # composite z-score lookup, item CCN1C(=O)[C@H]2[C@@H]3C(=CC[C@H]2C1=O)C(=O)[C@H]1O[C@H]1[C@H]3O
## Result -0.0258

## Task Looking for the measured composite z-score of CC(CCN1CCCCc2nc(C)c(C)cc21)=NO[C@@H](C)c1cc(-c2c(C)cc(C)cc2C)no1 , can you help?
## Result -0.231

## Task Which composite z-score value belongs to COc1ccc(O[C@H]2C=C[C@@H](C#Cc3ccccc3)O[C@@H]2CO)cc1 ?
## Result -0.0932

## Task Consider the compound CCOC(=O)CCN1C(=O)[C@H]2[C@H]3[C@H](O)[C@H](O)CC(=NOCC(C)C)[C@@H]3CC[C@H]2C1=O and give its measured composite z-score.
## Result -0.0693

## Task Would you mind telling me what composite z-score value was observed for CCOC(=O)[C@H](Cc1ccccc1)NC(=O)CCC1CC(OC(=O)NCc2cccc3ccccc23)CC2(CCCC(COC(=O)NCCOc3ccccc3)O2)O1 (stereo partly drawn) ?
## Result -0.16

----------
Hi there, I'd appreciate the recorded composite z-score for every entry that follows.
Assayed Target: Torsin-1A (Homo sapiens)
Test Method Notes: torsin A binders from cell lysate, primary screen, small-molecule microarray, wild-type, 635/667 nm (AID 1149)
Setup Conditions: COS7 hTOR1A-WT lysate, 635 nm fluorescence, higher = more signal
Provide a numeric answer; units are not to be included.

## Task Reported composite z-score for O=C(NCCC[N+]1=CC=NC1c1ccccc1)N1CCCc2nc(-c3ccc(Br)cc3)ccc21 (stereo not drawn) : what is it?
## Result 0.291

## Task State the recorded composite z-score for this entry: CON=C(C)CCN1CCCCc2nc(C)c(C)cc21
## Result 1.5

## Task Look up composite z-score: CCOC(=O)[C@H](CC(C)C)NC(=O)CCC1CC(OC(=O)NCCc2ccc(F)cc2)CC2(CCCC(COC(=O)NCCOC)O2)O1 (stereo partly drawn)
## Result 0.441

## Task Which composite z-score reading was recorded for the molecule COC(=O)[C@@H]1CC[C@H](C)[C@@H](c2ccc(Br)cc2)N1C[C@@H](O)CN=[N+]=[N-] ?
## Result 0.54

## Task Fill blank: measured composite z-score of the molecule CC(C)=NOC(C)CN1CCCCc2nc(C)c(C)cc21 (stereo not drawn) is ____.
## Result 0.765

## Task Reported composite z-score for COC(=O)CC=C[C@@H](C)[C@@H](C=NOC[C@@H](O)COCc1ccco1)NS(=O)(=O)c1ccc(C)cc1 : what is it?
## Result 1.11

## Task Could you share which composite z-score value was measured for CC(=O)OC[C@H]1O[C@H](CC=NO[C@H](C)c2cn([C@@H]3COC[C@H]3O)nn2)C=C[C@@H]1OC(C)=O ?
## Result -0.0469

## Task Which composite z-score is listed for CO[C@@H]1COC(=O)[C@H](COCc2ccccc2)NC(=O)CC=C[C@@H](C)[C@H](OC)COC(=O)[C@@H](C)NC(=O)CC=C[C@H]1C ?
## Result 1.53

----------
Tested on: Inhibin beta A chain (activin A)
Test Method Notes: INHBA (activin A) binders on microarrays, primary screen, biochemical, small-molecule microarray, 635 nm fluorescence scan (AID 1107);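 further: mouse activin A protein probed at 4.33 µg/mL on printed slides; score merges bound-protein fluorescence near 667 nm with spot signal-to-noise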
Setup Conditions: small-molecule microarray binding, higher = more signal
Label rule, in plain words: composite z-score of 0.8 and up is Y, under 0.8 is N.

## Task Hi, just wondering whether C[C@H]1C=CCC(=O)OC[C@H](C)C(=O)N2CCC[C@H]2C(=O)OC1 shows composite z-score of 0.8 or higher.
## Result N

## Task Entry CCc1cc2c(nc1CC)CCN(CCC(C)=NOCC[C@@H]1C=C[C@H](OC(C)=O)[C@@H](COC(C)=O)O1)C2 : is its composite z-score no less than 0.8?
## Result Y

## Task Check if composite z-score >= 0.8 (inclusive). Item: C=CC[C@@H]1C=C[C@H](ON=C[C@@H](NS(=O)(=O)c2ccc(C)cc2)[C@H](C)C=CCC(=O)OC)[C@@H](CO)O1
## Result Y

## Task State whether the measured composite z-score reaches 0.8, counting equality as reaching it, for C#CCCCON=C1C[C@@H](O)[C@@H](O)[C@@H]2[C@@H]3C(=O)N(CC)C(=O)[C@@H]3CC[C@H]12
## Result N

## Task Hi team, for COC(=O)[C@@H]1CC[C@H](C)[C@@H](c2ccc(C)cc2)N1C(=O)c1ccc(C=NO[C@@H](C)c2cc(-c3c(C)cc(C)cc3C)no2)cc1 , is the recorded composite z-score at or above 0.8?
## Result N

## Task Entry CC(=O)OC[C@H]1O[C@H](CCON=C(C)CCN2CCCc3nc(C)c(C)cc32)C=C[C@@H]1OC(C)=O : is its composite z-score no less than 0.8?
## Result Y

## Task Form field: composite z-score at least 0.8? Entry: CC#CCOCCC=C1c2ccccc2[C@@H](OC)[C@@H]1C
## Result N

----------
Please provide measured z-score for the entries that follow.
Test Method Notes: MM1S cell viability effects, profiling panel, calcein-AM fluorescence, 48 h, basal (AID 1165);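 further: viability of MM1S multiple myeloma cells under basal unstimulated conditions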
Setup Conditions: higher = more signal
Returns: the value as a bare number; no unit string appended.

## Task Which z-score is listed for COCC#Cc1ccc([C@@H]2N[C@H](C(=O)O)CC[C@H]2C)cc1 ?
## Result 0.391

## Task Fill in the blank: the reported z-score of O=C(NCCC[N+]1=CC=NC1c1ccccc1)N1CCCc2nc(-c3ccc(Br)cc3)ccc21 (centres undefined) is ____.
## Result -2.52

## Task Entry CC(CCN1CCCCc2nc(C)c(C)cc21)=NOC[C@@H](O)[C@H]1O[C@@H]2OC(C)(C)O[C@@H]2[C@H]1O : reported z-score = ?
## Result -0.22

## Task What measured z-score goes with CCOC(=O)[C@H](CC(C)C)NC(=O)CCC1CC(OC(=O)NCCc2ccc(F)cc2)CC2(CCCC(COC(=O)NCc3cccc4ccccc34)O2)O1 (some centres undefined) ?
## Result -3.43

----------
Test system: XIP peptide (Xip251-270)
Test Method Notes: small-molecule binders of XIP peptide, primary screen, biochemical, small-molecule microarray, fluorescence 635/667 nm, 0.5 µg/mL protein (AID 1183)
Setup Conditions: small-molecule microarray binding, fluorescence 635 nm; higher = more signal
Can you tell me composite z-score for the items I'm about to list?
Lab note: record the figure alone, no unit after it.

## Task Param item = CCC1=NOC(CCC2CC(OC(=O)NCc3cccc4c3OCO4)CC3(CCCC(COC(=O)NCCc4ccc(Cl)cc4)O3)O2)C1 (centres undefined) ; retrieve measured composite z-score.
## Result 0.855

## Task What value of composite z-score has been recorded for this entry: CC(C)[C@@H](OCc1ccccc1)[C@H](C)CON=C1[C@H]2CCn3c(=O)n(-c4ccccc4)c(=O)n3[C@H]2[C@H](O)[C@@H]2O[C@H]12
## Result 0.199

## Task Fill in the blank: the reported composite z-score of CO[C@H]1COC(=O)[C@H](C)COC(=O)[C@H](C)NC(=O)CC=C[C@H]1C is ____.
## Result 0.506

## Task I'd like to know its composite z-score. The compound in question is CCOC(=O)CCN1C(=O)[C@H]2[C@H]3[C@H](O)[C@H](O)CC(=NOCC=C(C)CCC=C(C)C)[C@H]3CC[C@H]2C1=O
## Result -0.206

----------
Kindly state composite z-score for each of the entries shown.
System: XIP peptide (Xip251-270)
Test Method Notes: small-molecule binders of XIP peptide, primary screen, biochemical, small-molecule microarray, fluorescence 635/667 nm, 0.5 µg/mL protein (AID 1183)
Setup Conditions: small-molecule microarray binding, fluorescence 635 nm; higher = more signal
Enter the number alone.

## Task Suppose we examine the molecule CC(C)=CCCC(C)=CCON=C1C[C@@H](O)[C@@H](O)[C@@H]2[C@@H]3C(=O)N(Cc4ccc5c(c4)OCO5)C(=O)[C@@H]3CC[C@H]12 ; what composite z-score value has been reported?
## Result 0.17

## Task Reported composite z-score, molecule O=C1C=C[C@@H](O)[C@@H]2[C@@H]3C(=O)N(Cc4ccccc4)C(=O)[C@@H]3CC[C@@H]12 : ____
## Result -0.0049

## Task I would be grateful if you could share the reported composite z-score for COC(=O)C(C(=O)OC)C1CCCC(=O)C1 (stereo not drawn) .
## Result 0.237

## Task Can you look up the measured composite z-score of CO[C@H]1COC(=O)CC=C[C@H](C)[C@H](OC)COC(=O)[C@@H](C)NC(=O)CC=C[C@@H]1C for me?
## Result 0.356

## Task Param item = CCOC(=O)[C@H](Cc1ccccc1)NC(=O)CCC1CC(OC(=O)NCc2cccc3ccccc23)CC2(CCCC(COC(=O)NCCc3ccc(Cl)cc3)O2)O1 (stereo partly drawn) ; retrieve measured composite z-score.
## Result 0.568

## Task Item under review: O=C1[C@H]2CCn3c(=O)n(Cc4cc5c(cc4Cl)OCO5)c(=O)n3[C@H]2[C@H](O)[C@@H]2O[C@H]12 . Reported composite z-score?
## Result 0.639

## Task Any idea what its composite z-score is? The molecule is CC(=O)OC[C@H]1O[C@H](CC=NO[C@@H](C)c2cc(-c3c(C)cc(C)cc3C)no2)C=C[C@@H]1OC(C)=O
## Result -0.445

## Task Consider the molecule shown here: O=C(NN=C1C[C@@H](O)[C@@H](O)[C@@H]2[C@@H]3C(=O)N(Cc4ccccc4)C(=O)[C@@H]3CC[C@H]12)OCc1ccccc1 What is its recorded composite z-score?
## Result -0.0586
